# Method: recombinant UMI read abundance after kanamycin selection (control-corrected) (log10(CPM+1)); higher = more efficient recombination; extreme values may be limits of the assay; sequences stand for … in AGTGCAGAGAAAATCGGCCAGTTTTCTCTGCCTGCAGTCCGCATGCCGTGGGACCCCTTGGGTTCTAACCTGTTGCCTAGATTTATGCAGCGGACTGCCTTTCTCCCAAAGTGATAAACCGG…AGGTTGGTTTCACT; site = the 11-nt donor
Measurement Type: recombinant UMI read abundance (log10)

Q: Field request: recombinant UMI read abundance (log10) | item: CAGTCGGCATGGACCGGTTTTCCCGGTAATCCGTATTTGGG (site CAGTCGTCTCC)
Ans: 0.0153

Q: Field request: recombinant UMI read abundance (log10) | item: ATCTATACATGGACCGGTTTTCCCGGTAATCCGTATTTGTC (site ATCTATACTGA)
Ans: 2.8

Q: Field request: recombinant UMI read abundance (log10) | item: CGGAGGCCATGGACCGGTTTTCCCGGTAATCCGTATTTGTT (site CGGAATCCTAA)
Ans: 0.00304

Q: Field request: recombinant UMI read abundance (log10) | item: CAATGCTCATGGACCGGTTTTCCCGGTAATCCGTATTTGAG (site CAATGCTCTAT)
Ans: 1.46

Q: Field request: recombinant UMI read abundance (log10) | item: GGGACTCCATGGACCGGTTTTCCCGGTAATCCGTATTTGAG (site TACGTATCTTC)
Ans: 0.0126

----------
# Method: recombinant UMI read abundance after kanamycin selection (control-corrected) (log10(CPM+1)); higher = more efficient recombination; extreme values may be limits of the assay; sequences stand for … in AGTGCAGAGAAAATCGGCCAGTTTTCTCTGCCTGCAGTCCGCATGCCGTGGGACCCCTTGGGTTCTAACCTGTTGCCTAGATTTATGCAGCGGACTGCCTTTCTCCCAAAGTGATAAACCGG…AGGTTGGTTTCACT; site = the 11-nt donor
Here the recorded recombinant UMI read abundance (log10) is given for each entry.
I'd appreciate a reply containing only the number, no unit.

Residue Sequence | recombinant UMI read abundance (log10)
CGGGGCTCATGGACCGGTTTTCCCGGTAATCCGTATTTGCA (site CGGGGCTCTTG) | 2.79
GTGGATGCATGGACCGGTTTTCCCGGTAATCCGTATTTGGT (site GTGCATGCTAC) | 0.00775

Q: Field request: recombinant UMI read abundance (log10) | item: ACTTCGCCATGGACCGGTTTTCCCGGTAATCCGTATTTGCT (site ACTTCGCCTAG)
Ans: 0.0122

----------
Here the recorded recombinant barcode read abundance (log10) is given for each entry.
# Method: recombinant barcode read abundance after kanamycin selection (control-corrected) (log10(CPM+1)); higher = more efficient recombination; sequences stand for … in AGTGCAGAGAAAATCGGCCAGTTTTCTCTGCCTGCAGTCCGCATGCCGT…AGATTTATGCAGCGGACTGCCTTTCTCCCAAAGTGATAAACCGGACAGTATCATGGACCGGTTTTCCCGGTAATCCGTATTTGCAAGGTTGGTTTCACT; site = the 11-nt target
I'd appreciate a reply containing only the number, no unit.

Residue Sequence | Reported
CATCGATCTTGGGTTCTAACCTGTTGCGT (site CATCGATCTAC) | 1.6
GCCGATACTTGGGTTCTAACCTGTTGCCT (site GCCGATACTAG) | 0.113
CACTGGTCTTGGGTTCTAACCTGTTGCCT (site CACTGTTCTAG) | 0.0874
CAATCTACTTGGGTTCTAACCTGTTGCCT (site CAATCTACTAG) | 0.0558
CAGCGTGCTTGGGTTCTAACCTGTTGCCT (site CAGCGTGCTAG) | 0.838

Q: Field request: recombinant barcode read abundance (log10) | item: GAGACGGCTTGGGTTCTAACCTGTTGCTT (site GAGGCGGCTAA)
Ans: 0.424

Q: Field request: recombinant barcode read abundance (log10) | item: AGTTTCACTTGGGTTCTAACCTGTTGCCT (site AGTTTCACTAG)
Ans: 0.0755

Q: Field request: recombinant barcode read abundance (log10) | item: TATTCTCCTTGGGTTCTAACCTGTTGCCT (site TATTCTCCTAT)
Ans: 0.0206

Q: Field request: recombinant barcode read abundance (log10) | item: ACGGTGACTTGGGTTCTAACCTGTTGCCT (site ACGGTGACTAG)
Ans: 2.24

Q: Field request: recombinant barcode read abundance (log10) | item: TAGTCTCCTTGGGTTCTAACCTGTTGCGT (site TAGTATCCTAC)
Ans: 0.227

Q: Field request: recombinant barcode read abundance (log10) | item: AACACTCCTTGGGTTCTAACCTGTTGCTT (site AACACTCCTAA)
Ans: 0.0689

Q: Field request: recombinant barcode read abundance (log10) | item: CGAGCTCCTTGGGTTCTAACCTGTTGCCT (site CGAGCTCCTAA)
Ans: 0.763

Q: Field request: recombinant barcode read abundance (log10) | item: GCAGGTACTTGGGTTCTAACCTGTTGCCT (site ACAGGTACTAG)
Ans: 0.508

Q: Field request: recombinant barcode read abundance (log10) | item: AACTGATCTTGGGTTCTAACCTGTTGCCT (site AACTGATCTAG)
Ans: 0.397

Q: Field request: recombinant barcode read abundance (log10) | item: AGATCCGCTTGGGTTCTAACCTGTTGCCT (site AGATCCGCTAG)
Ans: 1.3

Q: Field request: recombinant barcode read abundance (log10) | item: TAGGATACTTGGGTTCTAACCTGTTGCAA (site TAGGATACTTT)
Ans: 1.98

Q: Field request: recombinant barcode read abundance (log10) | item: CTTAGGACTTGGGTTCTAACCTGTTGCCA (site CTTAGGACTAG)
Ans: 0.257
